Where do the numbers come from? From patent US20200316083A1.

system: K. pneumoniae B-88 producing metallo beta-lactamase enzymes; assay: Time kill study against K. pneumoniae B-88; assay type: cell-based; settings: 6 hours; 2 mcg/ml alone
# maps each entry to its Bacterial count (Log10 CFU/ml) 6 hours
measured attribute: Bacterial count (Log10 CFU/ml) 6 hours

INSERT INTO assay_data (compound, value) VALUES
  ('O=C(NNC(=O)[C@@H]1CC[C@@H]2CN1C(=O)N2OS(=O)(=O)O)[C@@H]1CCCNC1', '8.18 Log10 CFU/ml'),
  ('O=C(NOC[C@@H]1CCCN1)[C@@H]1CC[C@@H]2CN1C(=O)N2OS(=O)(=O)O', '8.18 Log10 CFU/ml'),
  ('NCCONC(=O)[C@@H]1CC[C@@H]2CN1C(=O)N2OS(=O)(=O)O [Compound (E)]', '8.18 Log10 CFU/ml'),
  ('N#C[C@@H]1CC[C@@H]2CN1C(=O)N2OS(=O)(=O)O', '9.18 Log10 CFU/ml');
